ASSAYED_TARGET: Aurora kinase A (Homo sapiens, UniProt O14965)
Sequence (O14965 whole entry): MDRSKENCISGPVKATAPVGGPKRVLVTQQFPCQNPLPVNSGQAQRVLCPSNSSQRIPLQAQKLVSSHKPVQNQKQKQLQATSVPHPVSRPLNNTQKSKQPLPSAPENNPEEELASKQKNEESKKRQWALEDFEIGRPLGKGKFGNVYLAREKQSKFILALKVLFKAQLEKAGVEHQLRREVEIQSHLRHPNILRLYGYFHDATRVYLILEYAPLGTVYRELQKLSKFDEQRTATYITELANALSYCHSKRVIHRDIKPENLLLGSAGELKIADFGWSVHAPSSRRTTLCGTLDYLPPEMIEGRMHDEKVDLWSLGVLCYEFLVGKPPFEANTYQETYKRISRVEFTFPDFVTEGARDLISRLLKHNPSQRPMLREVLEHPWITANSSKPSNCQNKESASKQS
MEASUREMENT_KIND: IC50 (nM)

>  <CHEM_SMILES>
CN1CCN(Cc2ccc(C(=O)Nc3cc(-c4ccc(NC(=O)Nc5cc(C(C)(C)C)on5)cc4)n[nH]3)cc2)CC1

>  <IC50 [nM]>
160

$$$$

1: Cc1cc(NC(=O)Nc2ccc(-c3cc(NC(=O)c4ccc(N5CCN(C)CC5)cc4)[nH]n3)cc2)no1
2: Cc1nc(Nc2cc(-c3ccc(CNC(=O)Nc4cccc(Cl)c4)cc3)n[nH]2)cc(N2CCNCC2)n1
3: CN1CCN(c2ccc(C(=O)Nc3cc(-c4ccc(NC(=O)Nc5cc(C(C)(C)C)on5)cc4)n[nH]3)cc2)CC1
[ask] Kindly order the items shown according to IC50, from the highest value down. Show the ranking through the labels, in the order asked for.
[reply] 2, 1, 3
(2: 790 nM, 1: 120 nM, 3: 53 nM)

Cited source: ChEMBL document CHEMBL2384934
